# systemTested: Human GSK3b (Homo sapiens)
# Sequence (P49841 whole entry): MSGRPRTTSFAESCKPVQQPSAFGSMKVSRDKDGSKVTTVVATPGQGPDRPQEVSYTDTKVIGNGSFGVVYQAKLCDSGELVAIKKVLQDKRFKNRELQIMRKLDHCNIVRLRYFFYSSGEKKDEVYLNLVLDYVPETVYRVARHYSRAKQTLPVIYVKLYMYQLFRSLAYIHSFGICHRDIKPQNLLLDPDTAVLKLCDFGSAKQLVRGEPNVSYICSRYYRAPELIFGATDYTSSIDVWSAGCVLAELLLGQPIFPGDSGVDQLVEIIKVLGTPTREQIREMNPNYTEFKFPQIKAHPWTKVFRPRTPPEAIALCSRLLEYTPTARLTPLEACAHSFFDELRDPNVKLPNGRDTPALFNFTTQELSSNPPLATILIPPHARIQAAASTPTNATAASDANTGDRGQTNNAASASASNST
measurementKind: IC50

Known IC50 results, listed for orientation:
[
  {
    "molecule": "c1ccc(Cc2nc3ccc(Nc4ncnc5nn6ccccc6c45)cc3[nH]2)cc1 [Example 7]",
    "IC50": "> 10000 nM"
  },
  {
    "molecule": "Clc1cc(Nc2ncnc3nn4ccccc4c23)ccc1OCc1ccccc1 [Example 6]",
    "IC50": "> 10000 nM"
  },
  {
    "molecule": "C(=NNc1ncnc2nn3ccccc3c12)c1c[nH]c2ccccc12 [Example 14]",
    "IC50": "1000 to 10000 nM"
  }
]

Query: Reported IC50 for Human GSK3b (Homo sapiens), given O=C(Nc1ccc(F)cc1)Nc1ncnc2nn3ccccc3c12 [Example 13] ?
Reply: > 10000 nM

Query: Reported IC50 for Human GSK3b (Homo sapiens), given O=C(Nc1cccc(C(F)(F)F)c1)Nc1ncnc2nn3ccccc3c12 [Example 9] ?
Reply: 100 to 1000 nM

Query: Reported IC50 for Human GSK3b (Homo sapiens), given N#Cc1cccc(NC(=O)Nc2ncnc3nn4ccccc4c23)c1 [Example 8] ?
Reply: 100 to 1000 nM
